- system-tested: HLA-A*0201 molecules (Homo sapiens, UniProt P04439, D140Y/D185E/D98H/E176V/E277Q/G131W/G231S/I119V/I121R/I166T/I218V/L300P/L318F/N151K/N90K/P208A/P217A/Q86G/Q94H/R138H/R169H/T345S)
- assay-protocol: Competitive peptide inhibition assay (F1-peptide displacement on T2 cells)
No end group written: not given here.
Exercise: for every item that follows, state its recorded IC50.
Answers are plain numbers, in µM.

| primary-sequence | measure-unit | IC50 |
| --- | --- | --- |
| SLSYTNPAV [P7] | µM | 0.441 |

Per the records, this sequence ( LLLLTVLTV [P5] ) has IC50 equal to 11.1
